- System: RXF 393 renal
- run_description: NCI-60 one-dose screen, 48 h (100 = growth as untreated, 0 = no growth, -100 = all killed)
- measurement_setup: 10 µM unless noted
This is part of a sample that, as a whole, favours compounds with a hit. Of some 83,000 tested, about 20% had one in any assay.
Documented growth across a set of compounds
Dear colleague, please return just the value in %, with no unit written.

Example cases with answers are listed next.
COc1cc(-c2nn(C(=O)NS(=O)(=O)c3ccccc3)cc2-c2ccncc2)ccc1Cl
63
COc1cc(C2C3=C(COC3=O)Nc3cc4c(cc32)OCO4)cc2c1OCO2 (stereo not given)
18.5
COC1=C(OC)C(=O)C(CCCCCCCCCC[P+](c2ccccc2)(c2ccccc2)c2ccccc2)=C(C)C1=O
-56.7

Report measured growth on RXF 393 renal; entry: COc1cccc(-c2nc3sccn3c2-c2ccnc(NCCCNS(=O)(=O)c3ccc(F)cc3)c2)c1 63.2

Report measured growth on RXF 393 renal; entry: CCN1C(=O)N(CC)C2C1NN=c1s/c(=C\c3cccnc3)c(=O)n12 (stereo not given) 0.531

Report measured growth on RXF 393 renal; entry: CC(=O)Oc1csc(N(C(C)=O)c2cccc(C(F)(F)F)c2)n1 103

Report measured growth on RXF 393 renal; entry: COc1cc(C2CC(c3ccc4c(c3)OCO4)=NN2C(C)=O)cc(OC)c1OC (stereo not given) 7.22

Report measured growth on RXF 393 renal; entry: O=C(Oc1ccccc1[N+](=O)[O-])C1CCCN1C(=O)OCc1ccccc1 (stereo not given) 96

Report measured growth on RXF 393 renal; entry: CC12CCC3C4(C)COC(c5ccccc5Cl)OC4CCC3(C)C1CC(C1=CCOC1=O)O2 (stereo not given) 80.4

Report measured growth on RXF 393 renal; entry: Cn1ccc(=O)c(S(N)(=O)=O)c1 85.8

###

- Test system: UO-31 renal
- run_description: NCI-60 one-dose screen, 48 h
- measurement_setup: 10 µM unless noted
Compounds without any hit were thinned out: in the full panel of roughly 83,000, 20% have a hit. Calls of active or inactive are those of the source. How the source made its calls: active means growth percent below 10; inactive means the rest.
Use one of these outcomes when replying: active, inactive

CC(=O)Nc1ccc(/C=C/C(=O)c2ccccc2)cc1
inactive

Assay outcome for CCN(CC)c1ccc(CNc2ccnc3ccccc23)cc1 : what was it? inactive

Assay outcome for CN(C)CCCN(c1nc(C(Cl)(Cl)Cl)ns1)c1nc(C(Cl)(Cl)Cl)ns1 : what was it? active

Assay outcome for O=C(NNC(=O)N1c2ccccc2C=Cc2ccccc21)c1ccccc1 : what was it? inactive

Assay outcome for CC1CCC(C)N(C)C1 (configuration not stated) : what was it? inactive

Assay outcome for COc1ccc(-c2ccc(-c3ccc(-c4ccc(C(=N)N)cc4)s3)s2)cc1OC : what was it? inactive

Assay outcome for COc1ccc(C(=O)N2NC(=O)/C(=C/c3ccc(Br)cc3)N=C2c2ccccc2)cc1 : what was it? inactive

Assay outcome for CC12CCCC(CC(=O)c3[nH]c4ccccc4c31)C2 (configuration not stated) : what was it? inactive

Assay outcome for O=[N+]([O-])c1ccc(-c2cn(-c3ccccc3)c(-c3ccccc3)n2)cc1 : what was it? inactive

Assay outcome for Cc1ccc(Nc2nnc(-c3ccc(Cl)cc3)o2)c(C)c1 : what was it? inactive

Assay outcome for O=C(O)C1CCCCN1c1nc(Cl)nc(Cl)n1 (configuration not stated) : what was it? inactive

Assay outcome for CSc1nc2c(c(=O)[nH]1)C(c1ccc(C)cc1)C=C(C(=O)O)N2 (configuration not stated) : what was it? inactive

Assay outcome for C=C[C@@H]1C[C@@H]2Cc3cc(F)ccc3N1O2 : what was it? inactive

Assay outcome for COc1cc2c(c(OC)c1OC)-c1ccc(N)c(=O)cc1[C@@H](NC(C)=O)CC2 : what was it? inactive

Assay outcome for COc1ccc(C2NN=C3c4ccccc4CCC32)cc1 (configuration not stated) : what was it? inactive

Assay outcome for C=C1CCC2C3(C)COC(C)(C)OC3CCC2(C)C1C/C=C1/C(=O)OCC1Oc1ccccc1OC (configuration not stated) : what was it? inactive

Assay outcome for CC(C)(C)n1cc(-c2ccnc(NCCCNS(=O)(=O)c3ccc(C(F)(F)F)cc3)c2)c(-c2cccc(O)c2)n1 : what was it? inactive

Assay outcome for CCN1C(=O)N(CC)C2C1NN=c1s/c(=C\c3cccnc3)c(=O)n12 (configuration not stated) : what was it? inactive

Assay outcome for Brc1cccc(-c2cc(-c3ccc4nccnc4c3)[nH]n2)c1 : what was it? inactive

Assay outcome for O=C(Nc1cccc(-n2cc(-c3ccncc3)c(-c3ccc(Cl)c(O)c3)n2)c1)c1ccccc1 : what was it? inactive

Assay outcome for COc1cc(C2C3=C(COC3=O)Nc3cc4c(cc32)CCC4)cc2c1OCO2 (configuration not stated) : what was it? inactive

Assay outcome for NC1=NN(O)C2=CC([N+](=O)[O-])C=CC2=N1 (configuration not stated) : what was it? inactive
